Some variants, each annotated with its measured abundance fitness.
B1: Gamma-crystallin S, residues 96 to 176; numbered along this chain, P22914 (parent)
chain: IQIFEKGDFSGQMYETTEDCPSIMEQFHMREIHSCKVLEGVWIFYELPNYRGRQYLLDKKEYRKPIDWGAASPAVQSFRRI

- Variants of: B1
- Experiment Summary: abundance fitness (aPCA) (normalised: wild type 0, dead -1); higher = more abundant; growth selection in yeast, the domain comes from the species named
- Conditions: Homo sapiens
Result Type: abundance fitness

>>> reported("IQIFEKGDFSGQMYETTEDCPSIMEQFHMREIHSCKVLEGVWIFYELPNYRGRQRLLDKKEYRKPIDWGAASPAVQSFRRI [Y55R]")
0.055
>>> reported("IQIFEKGDFSGQMYETTEDCPSIMEQFHMREIHSCKVLEGVWIFYEEPNYRGRQYLLDKKEYRKPIDWGAASPAVQSFRRI [L47E]")
-0.004
>>> reported("IQIFWKGDFSGQMYETTEDCPSIMEQFHMREIHSCKVLEGVWIFYELPNYRGRQYLLDKKEYRKPIDWGAASPAVQSFRRI [E5W]")
0.006
>>> reported("IQIFEKGDFSGQMYETTEDCFSIMEQFHMREIHSCKVLEGVWIFYELPNYRGRQYLLDKKEYRKPIDWGAASPAVQSFRRI [P21F]")
0.075
>>> reported("IQIFEKGDFSGQMYETTEDCPSIMEQFHMREIHSCKVLEGVWIFYELPNYRGRQYLLDKKEYRKPIDWGAASPAVQSFARI [R79A]")
0.147
>>> reported("IQHFEKGDFSGQMYETTEDCPSIMEQFHMREIHSCKVLEGVWIFYELPNYRGRQYLLDKKEYRKPIDWGAASPAVQSFRRI [I3H]")
-0.777
>>> reported("IQIFEKGDFSGQMYETTEDCPSIMEQFHMREIASCKVLEGVWIFYELPNYRGRQYLLDKKEYRKPIDWGAASPAVQSFRRI [H33A]")
-0.047
>>> reported("IQIFESGDFSGQMYETTEDCPSIMEQFHMREIHSCKVLEGVWIFYELPNYRGRQYLLDKKEYRKPIDWGAASPAVQSFRRI [K6S]")
0.085
>>> reported("IQIFEKGDFSGQMYETTEICPSIMEQFHMREIHSCKVLEGVWIFYELPNYRGRQYLLDKKEYRKPIDWGAASPAVQSFRRI [D19I]")
-0.144
>>> reported("IQIFEKGDFSGQMYETTEDCPSIMEQPHMREIHSCKVLEGVWIFYELPNYRGRQYLLDKKEYRKPIDWGAASPAVQSFRRI [F27P]")
-0.001
>>> reported("IQIFEKGDFSGQMYETTEDCPSIMEQFHMREIHSCKVLEGVWIFYELPNYRGRQYLLDKKEYRKPIDWWAASPAVQSFRRI [G69W]")
-0.018
>>> reported("IQIFEKGDFSGQMYETTEDCPSIMEQFHMREIHSCKVLEGVWICYELPNYRGRQYLLDKKEYRKPIDWGAASPAVQSFRRI [F44C]")
0.035
>>> reported("IQIFEKGDFSGQMYETTEDCPSIMEQFHMREIHSCKVLEGVWIFYELPNYRGRQYLLDKKEYRKPIDWGAASPMVQSFRRI [A74M]")
-0.011
>>> reported("IQIFEKGDFSGQMYETTEDCPSIMEQFHMREIHSCKVLEGVWIFYELPNYRGRQYLLDKKHYRKPIDWGAASPAVQSFRRI [E61H]")
-0.205
>>> reported("IQIFEKGDFSGQMYETTEDCPSIMEQFHMREIHSCKVLEPVWIFYELPNYRGRQYLLDKKEYRKPIDWGAASPAVQSFRRI [G40P]")
-0.028
>>> reported("IQIFEKGDFSGQMYETTEDCPSIMEQFHMREIHSCKVLEGVWIFYELPGYRGRQYLLDKKEYRKPIDWGAASPAVQSFRRI [N49G]")
0.011
>>> reported("IQIFEKGDFSGQMYETTEDCPSIMEQIHMREIHSCKVLEGVWIFYELPNYRGRQYLLDKKEYRKPIDWGAASPAVQSFRRI [F27I]")
0.104
>>> reported("IQIFEKGDFSGQMYETTEDCPSIMEQFHMREIHSCKVLEGVWIFYELPNYRYRQYLLDKKEYRKPIDWGAASPAVQSFRRI [G52Y]")
-0.95
>>> reported("IQIFEKGDFSGQMYETTEDAPSIMEQFHMREIHSCKVLEGVWIFYELPNYRGRQYLLDKKEYRKPIDWGAASPAVQSFRRI [C20A]")
-0.004
>>> reported("IQIFEKGDFSGQMYETTEDCPAIMEQFHMREIHSCKVLEGVWIFYELPNYRGRQYLLDKKEYRKPIDWGAASPAVQSFRRI [S22A]")
0.023
>>> reported("IPIFEKGDFSGQMYETTEDCPSIMEQFHMREIHSCKVLEGVWIFYELPNYRGRQYLLDKKEYRKPIDWGAASPAVQSFRRI [Q2P]")
-0.876
>>> reported("IQIFEKGDFSGQMYETTEDCYSIMEQFHMREIHSCKVLEGVWIFYELPNYRGRQYLLDKKEYRKPIDWGAASPAVQSFRRI [P21Y]")
-0.109
>>> reported("IQIFEKGDFSGQMYETTEDCPSIMEQFHMREIHSCTVLEGVWIFYELPNYRGRQYLLDKKEYRKPIDWGAASPAVQSFRRI [K36T]")
-0.019
>>> reported("IQNFEKGDFSGQMYETTEDCPSIMEQFHMREIHSCKVLEGVWIFYELPNYRGRQYLLDKKEYRKPIDWGAASPAVQSFRRI [I3N]")
-0.627
>>> reported("IQIFEKGDFSGQMYETTEDCPSIMEQFHMREIHSCKVLEGVWIFYELPNYRARQYLLDKKEYRKPIDWGAASPAVQSFRRI [G52A]")
-0.741
>>> reported("IQIFEKGDFSGQCYETTEDCPSIMEQFHMREIHSCKVLEGVWIFYELPNYRGRQYLLDKKEYRKPIDWGAASPAVQSFRRI [M13C]")
-0.012
>>> reported("IQIFEKGDFSGQMYETTEDCPSIMEQFHMREIHSCKVLEGVWIFYELPNYRGRQYLLDKKEYRKPADWGAASPAVQSFRRI [I66A]")
-0.032
>>> reported("IQIFEKPDFSGQMYETTEDCPSIMEQFHMREIHSCKVLEGVWIFYELPNYRGRQYLLDKKEYRKPIDWGAASPAVQSFRRI [G7P]")
0.007
>>> reported("IQIFEKGDFSGQMYETTEDCPSIMEQFHMREIHSCKVLEGVWIFYELPNYRGRQYLLDKKEYRKPIDWGAMSPAVQSFRRI [A71M]")
0.022
>>> reported("IQIFEKGDFSGQMYETTEDCPSIMEQFHMREIHSCKVLEGVWIFYELPNYRPRQYLLDKKEYRKPIDWGAASPAVQSFRRI [G52P]")
-0.89
>>> reported("IQIFEKGDFSGQMYETTEDCPSIMEQFHMREIHSCKVLEGVNIFYELPNYRGRQYLLDKKEYRKPIDWGAASPAVQSFRRI [W42N]")
-0.445
>>> reported("IQIFEKGDFSGQMYKTTEDCPSIMEQFHMREIHSCKVLEGVWIFYELPNYRGRQYLLDKKEYRKPIDWGAASPAVQSFRRI [E15K]")
0.147
>>> reported("IQIFEKGDFSGQMYETTEDCPSIMEQFHMREIHYCKVLEGVWIFYELPNYRGRQYLLDKKEYRKPIDWGAASPAVQSFRRI [S34Y]")
-0.646
>>> reported("IQIMEKGDFSGQMYETTEDCPSIMEQFHMREIHSCKVLEGVWIFYELPNYRGRQYLLDKKEYRKPIDWGAASPAVQSFRRI [F4M]")
-0.045
>>> reported("IQIFEKGDFSGQMYETTEDCPSIMEQFHMREIHSCKVLEGVWIFLELPNYRGRQYLLDKKEYRKPIDWGAASPAVQSFRRI [Y45L]")
-0.651
>>> reported("IQIFEKGDFSGQMYETTEDCPSIMEQFHMREIHSCKVSEGVWIFYELPNYRGRQYLLDKKEYRKPIDWGAASPAVQSFRRI [L38S]")
-0.014
>>> reported("IQIFEKGDFSGQMYETTEDCPSIMEQFHMREIHSCKVLEGVWIFYELPNYRGRQYLLKKKEYRKPIDWGAASPAVQSFRRI [D58K]")
0.012
>>> reported("IQIFEKGDFSGQMYETTEDCPSILEQFHMREIHSCKVLEGVWIFYELPNYRGRQYLLDKKEYRKPIDWGAASPAVQSFRRI [M24L]")
0.002
>>> reported("IQIFEKGDFSGQTYETTEDCPSIMEQFHMREIHSCKVLEGVWIFYELPNYRGRQYLLDKKEYRKPIDWGAASPAVQSFRRI [M13T]")
0.027
>>> reported("IQIFEKGDFSGQMYETTEDCPSIMEQFHMREIHSCQVLEGVWIFYELPNYRGRQYLLDKKEYRKPIDWGAASPAVQSFRRI [K36Q]")
-0.002
>>> reported("IQIFEKGDFSGQMYCTTEDCPSIMEQFHMREIHSCKVLEGVWIFYELPNYRGRQYLLDKKEYRKPIDWGAASPAVQSFRRI [E15C]")
-0.137
>>> reported("IQIFEKGDFSGQMYETTEDCPSIMEQFHMREIHSCKRLEGVWIFYELPNYRGRQYLLDKKEYRKPIDWGAASPAVQSFRRI [V37R]")
0.042
>>> reported("IQIFEKGDFSGQMYETTEDCPSIMEQFHMREIHSCKVLEGVWIFYELPNYRGRQYLLDKKEYRKPIDWGAASPAVQSFERI [R79E]")
-0.191
>>> reported("IQIFEKGDFSGQMYETTEDCPSIMEQFHMREIVSCKVLEGVWIFYELPNYRGRQYLLDKKEYRKPIDWGAASPAVQSFRRI [H33V]")
-0.013
>>> reported("IQIFEKGDFSGQMYETTEDCPSIMEQFHMREIHSCKVLEGVWIFYELPNYDGRQYLLDKKEYRKPIDWGAASPAVQSFRRI [R51D]")
0
>>> reported("IQIFEKGDFSGQMYETTEDCPSIMEQFHMREIHSCKVLEGVWIFYELPNYEGRQYLLDKKEYRKPIDWGAASPAVQSFRRI [R51E]")
0.037
